Reference source: the RNAGym collection of RNA variant scans (doi:10.1021/acssynbio.7b00057)

Could you please report measured aptazyme ON/OFF ratio for the items listed next?
B1: Pistol ribozyme (parent)
chain: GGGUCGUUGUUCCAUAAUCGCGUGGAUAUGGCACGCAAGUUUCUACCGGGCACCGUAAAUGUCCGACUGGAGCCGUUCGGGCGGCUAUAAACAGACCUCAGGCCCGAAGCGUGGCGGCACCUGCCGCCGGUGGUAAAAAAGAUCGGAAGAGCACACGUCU

Variants of: B1
Assay: aptazyme ON/OFF ratio, guanine; higher = stronger switching; co-transcriptional cleavage with and without guanine
Give bare numbers.

In the examples that follow, each entry is paired with its recorded aptazyme ON/OFF ratio.
U10G U11C C12G = 1.43
U7G U8C G9C U10G U11A C12U C13A = 1.03
U7G U10G C12U C13A = 1.18
G9C U10G U11G C12A C13A = 1.11
U7G G9A U10G U11G C12U C13A = 1.09

Dear reader, for each entry below, please note its aptazyme ON/OFF ratio.
1. U8C U10C U11G C12A C13U
2. U7A U8G G9U U10G U11C C12A C13A
3. U7A U8A G9C U10C U11G C13G

Marked response:
[1.33, 1.14, 1.05]

Parameters: items (list). Returns: aptazyme ON/OFF ratio for each item.
1. U7G U8A G9C U11C C13G
2. U7A U8C G9A U11A C12A C13A

Marked response:
1. 1.05
2. 1.31

Report aptazyme ON/OFF ratio for each item below.
1. U7C U8A G9C U10G U11C C13U
2. U8C G9U U10C C12U
3. U7G U8A G9U U11A
4. U7G G9A U10C U11A C12U C13U
5. U7C U8C U10G U11C C12U C13A
6. U7A U8G G9C U11G C12A C13A
7. U7A U8G G9A U10A U11C C12A
8. U7G U10A C12A

Marked response:
1.09
1.05
1.39
1.04
1.2
1.29
1.44
1.21
